- target: AgrA (Staphylococcus aureus, UniProt P0A0I7)
- Sequence (P0A0I7 whole entry): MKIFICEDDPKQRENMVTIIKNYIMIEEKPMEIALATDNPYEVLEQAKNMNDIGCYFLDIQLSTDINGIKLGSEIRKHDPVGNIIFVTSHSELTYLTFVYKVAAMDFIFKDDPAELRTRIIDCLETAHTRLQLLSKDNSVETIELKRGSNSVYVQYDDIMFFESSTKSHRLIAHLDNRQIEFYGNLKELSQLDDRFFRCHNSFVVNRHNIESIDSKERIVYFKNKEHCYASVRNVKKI
- procedureText: cell-based
- Parameters: species or system S. aureus USA300 strain UAMS-1625
- protocolConditions: IC50 without HSA, LB medium, without HSA
pIC50: −log10 of the molar value.
assayMetric: pIC50

Any idea what pIC50 was measured for Cc1ccc(S(=O)(=O)c2nnn3c2[nH]c(=O)c2ccc(N4CC5(CC(C(=O)O)C5)C4)cc23)c(C)c1 ?
> 5.69

Any idea what pIC50 was measured for Cc1ccc(S(=O)(=O)c2nnn3c2[nH]c(=O)c2ccc(N4CCCN(CCO)CC4)cc23)c(C)c1 ?
> 5.70

Any idea what pIC50 was measured for Cc1ccc(S(=O)(=O)c2nnn3c2[nH]c(=O)c2ccc(N4CCC45CN(C)C5)cc23)c(C)c1 ?
4.97 to 5.67

Any idea what pIC50 was measured for Cc1ccc(S(=O)(=O)c2nnn3c2[nH]c(=O)c2ccc(N4CCN(C(=O)C(C)C)CC4)cc23)c(C)c1 ?
> 5.71

Any idea what pIC50 was measured for Cc1ccc(S(=O)(=O)c2n[nH]n3c2nc(=O)c2ccc(N4CCN(C5CCN(C)CC5)CC4)cc23)c(C)c1 ?
5.03 to 5.73

Any idea what pIC50 was measured for CCN(CC)CCC(=O)N1CCN(c2ccc3c(=O)[nH]c4c(S(=O)(=O)c5ccc(C)cc5C)nnn4c3c2)CC1 ?
5.05 to 5.75

Any idea what pIC50 was measured for Cc1ccc(S(=O)(=O)c2n[nH]n3c2nc(=O)c2ccc(N4CCN(C5CCOCC5)CC4)cc23)c(C)c1 ?
> 5.72

Any idea what pIC50 was measured for Cc1ccc(S(=O)(=O)c2n[nH]n3c2nc(=O)c2ccc(N4CCC5(CCN(C)CC5)CC4)cc23)c(C)c1 ?
5.02 to 5.72

Any idea what pIC50 was measured for Cc1ccc(S(=O)(=O)c2nnn3c2[nH]c(=O)c2ccc(N4CC5(CN(C)C5)C4)cc23)c(C)c1 ?
4.97 to 5.67

Any idea what pIC50 was measured for Cc1ccc(S(=O)(=O)c2nnn3c2[nH]c(=O)c2ccc(N4CCC5(CN(C)CCO5)C4)cc23)c(C)c1 (stereo not shown) ?
> 5.71

Any idea what pIC50 was measured for Cc1ccc(S(=O)(=O)c2nnn3c2[nH]c(=O)c2ccc(N4CCCOCC4)cc23)c(C)c1 ?
> 5.66

Any idea what pIC50 was measured for Cc1ccc(S(=O)(=O)c2nnn3c2[nH]c(=O)c2ccc(N4C[C@H]5CNC[C@H]5C4)cc23)c(C)c1 ?
4.97 to 5.67

Any idea what pIC50 was measured for Cc1ccc(S(=O)(=O)c2nnn3c2[nH]c(=O)c2ccc(N4CCN5CCOCC5C4)cc23)c(C)c1 (stereo not shown) ?
5.00 to 5.69

Any idea what pIC50 was measured for Cc1ccc(S(=O)(=O)c2nnn3c2[nH]c(=O)c2ccc(N4CCN(C5COC5)CC4)cc23)c(C)c1 ?
> 5.69

Any idea what pIC50 was measured for Cc1ccc(S(=O)(=O)c2nnn3c2[nH]c(=O)c2ccc(N4CCN(CC(F)(F)F)CC4)cc23)c(C)c1 ?
> 5.72

Any idea what pIC50 was measured for COCCN1CCN(c2ccc3c(=O)[nH]c4c(S(=O)(=O)c5ccc(C)cc5C)nnn4c3c2)CC1 ?
5.00 to 5.70
